Each entry below carries its reported Her2 level.
SYSTEM NAME: Receptor tyrosine-protein kinase erbB-2 (Homo sapiens)
PROTOCOL TEXT: reducers of endogenous Her2 protein level, primary screen, SKBR3 breast tumor cells, AlphaScreen, ATP viability (AID 461);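 note: lower value means less Her2 protein in the cells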
COND: 18-24 h, at 10 µM, stronger effect = lower value
PROPERTY LABEL: Her2 level (%)

COMPOUND	PROPERTY LABEL	UNIT OF MEASUREMENT	DATA VALUE
COc1ccccc1N=Cc1nc(-c2ccccc2)oc1OC(C)=O	Her2 level	%	82.5
CCN(CC)S(=O)(=O)c1ccc(NC2CCCc3ccccc32)nc1 (stereo unspecified)	Her2 level	%	77
CCc1nnc(NC(=O)c2ccc(S(=O)(=O)NC3CCCCC3)cc2)s1	Her2 level	%	69.5
O=C(c1cccnc1)N1CCc2ccccc21	Her2 level	%	77.5
CN(C1CCS(=O)(=O)C1)S(=O)(=O)c1cccc2nsnc12 (stereo unspecified)	Her2 level	%	100
CCOC(=O)C(CCc1nnc(N)s1)C(=O)OCC	Her2 level	%	89
Cc1c(NC(=O)CN2c3cccc4cccc(c34)S2(=O)=O)c(=O)n(-c2ccccc2)n1C	Her2 level	%	93
CCOc1ccc2nc(SCC#N)c(C#N)cc2c1	Her2 level	%	106
CC(C)(C)n1ncc2c(=O)n(CC(=O)NCc3ccco3)cnc21	Her2 level	%	94
CCOC(=O)c1c(C)oc2ccc(OCC(N)=O)cc12	Her2 level	%	95
Cc1cccc(-c2cc3nc4c(c(N5CCOCC5)n3n2)CCCC4)c1	Her2 level	%	70
